System: YST-1
experimentalProtocol: relative IC50 (inflection point of fitted dose-response curve, CellTiter-Glo viability, 72 h; top asymptote may be below 50% inhibition); higher = less potent
Please mark met if the recorded relative IC50 is equal to or greater than 0.2 µM, and not met if it falls below.

1) COc1cccc(OCCCN)c1-c1cc(Nc2cnc(C#N)cn2)n[nH]1 [Prexasertib] | not met
2) CC(=O)O[C@H]1C(=O)[C@@]2(C)[C@H]([C@H](OC(=O)c3ccccc3)[C@]3(O)C[C@H](OC(=O)[C@H](O)[C@@H](NC(=O)c4ccccc4)c4ccccc4)C(C)=C1C3(C)C)[C@]1(OC(C)=O)CO[C@@H]1C[C@@H]2O [Paclitaxel] | not met
3) Cc1cc(C(C)Nc2ccccc2)c2nc(N3CCOCC3)cc(=O)n2c1 (stereo not given) [TGX-221] | met
4) Nc1ccn([C@@H]2O[C@H](CO)[C@@H](O)[C@@H]2O)c(=O)n1 [Cytarabine] | met
5) Cc1ccc(Nc2nccc(N(C)c3ccc4c(C)n(C)nc4c3)n2)cc1S(N)(=O)=O [Pazopanib] | met
6) C[C@]12O[C@H](C[C@]1(O)CO)n1c3ccccc3c3c4c(c5c6ccccc6n2c5c31)CNC4=O [Lestaurtinib] | not met
7) CN(C)C1CCN(C(=O)c2ccc(NC(=O)Nc3ccc(-c4nc(N5CCOCC5)nc(N5CCOCC5)n4)cc3)cc2)CC1 [Gedatolisib] | not met
8) CC[C@@]1(O)C(=O)OCc2c1cc1n(c2=O)Cc2cc3c(CN(C)C)c(O)ccc3nc2-1 [Topotecan] | not met
9) CN[C@@H](C)C(=O)N[C@H]1CN(C(=O)CC(C)C)CC[C@H]2CC[C@@H](C(=O)NC(c3ccccc3)c3ccccc3)N2C1=O [AT-406] | met
10) C[C@]1(c2nc3c(C(N)=O)cccc3[nH]2)CCCN1 [Veliparib] | met
11) Cn1cc(-c2cnn3c(N)c(Br)c([C@@H]4CCCNC4)nc23)cn1 [MK-8776] | met
12) CCCCCCCCCCCCCCCCCCOP(=O)([O-])OC1CC[N+](C)(C)CC1 [Perifosine] | met
13) CN(C)C(=O)c1cc2cnc(Nc3ccc(N4CCNCC4)cn3)nc2n1C1CCCC1 [Ribociclib] | met
14) COc1cccc2c1C(=O)c1c(O)c3c(c(O)c1C2=O)C[C@@](O)(/C(CO)=N/NC(=O)CCCCCN1C(=O)C=CC1=O)C[C@@H]3O[C@H]1C[C@H](N)[C@H](O)[C@H](C)O1 [Aldoxorubicin] | not met
15) CCN(CC)Cc1ccc2cc(COC(=O)Nc3ccc(C(=O)NO)cc3)ccc2c1 [Givinostat] | not met

###

Tested on: HS-PSS
experimentalProtocol: relative IC50 (inflection point of fitted dose-response curve, CellTiter-Glo viability, 72 h; top asymptote may be below 50% inhibition); higher = less potent
observationType: relative IC50 (nM)

1) C=CCn1c(=O)c2cnc(Nc3ccc(N4CCN(C)CC4)cc3)nc2n1-c1cccc(C(C)(C)O)n1 [MK1775] | 547
2) NCCNc1ccc(NCCN)c2c1C(=O)c1ccncc1C2=O [Pixantrone] | 3000
3) CCN(CC)CCCC(C)Nc1ccnc2cc(Cl)ccc12 (stereo not drawn) [Chloroquine] | 2730
4) CC(C)(C)c1nc(-c2cccc(NS(=O)(=O)c3c(F)cccc3F)c2F)c(-c2ccnc(N)n2)s1 [Dabrafenib] | 1000
5) CS(=O)(=O)N1CCN(Cc2cc3nc(-c4cccc5[nH]ncc45)nc(N4CCOCC4)c3s2)CC1 [Pictilisib] | 1110

###

Tested on: YST-1
experimentalProtocol: % inhibition of CellTiter-Glo viability at highest tested concentration (72 h), relative to DMSO and benzethonium chloride controls; higher = more inhibition
Attribute: % inhibition
observationType: % inhibition (%)

1. COc1cc(NS(C)(=O)=O)ccc1Nc1c2ccccc2nc2ccccc12 [Amsacrine] (max concentration tested 10000 nM) | 86.6
2. Cc1nc(=O)c2cc(CN(C)c3ccc(C(=O)N[C@@H](CCC(=O)O)C(=O)O)s3)ccc2[nH]1 [Raltitrexed] (max concentration tested 1000 nM) | 29.9
3. Cc1ccc(-n2nc(C(C)(C)C)cc2NC(=O)Nc2ccc(OCCN3CCOCC3)c3ccccc23)cc1 [Doramapimod] (max concentration tested 10000 nM) | 80.8
4. CCN1CCN(Cc2ccc(-c3cc4c(N[C@H](C)c5ccccc5)ncnc4[nH]3)cc2)CC1 [NVP-AEE788] (max concentration tested 2500 nM) | 22.3
5. O=C(Nc1cccnc1)N1CCC(Cc2cccc(Oc3ccc(C(F)(F)F)cn3)c2)CC1 [PF-3845] (max concentration tested 10000 nM) | 25.5
6. N[C@@H]1CCCN(c2c(/C=C3\SC(=O)NC3=O)cccc2-c2ccccc2)C1 [AZD1208] (max concentration tested 10000 nM) | 38.7

###

Test system: S1507-2
experimentalProtocol: relative IC50 (inflection point of fitted dose-response curve, CellTox-Green cytotoxicity, 72 h; top asymptote may be below 50%); higher = less potent
Each entry below lists one item and its recorded relative IC50 value.
observationType: relative IC50

1) COc1cc2c(NC3CCN(C(C)C)CC3)nc(N3CCC(F)(F)CC3)nc2cc1OCCCN1CCCC1 | 2.9 µM
2) C[C@]12C=CC(=O)C=C1CC[C@@H]1[C@@H]2[C@@H](O)C[C@@]2(C)[C@H]1CC[C@]2(O)C(=O)CO | > 10 µM
3) Cc1cc2c(C(C)C)c(O)c(O)c(C=O)c2c(O)c1-c1c(C)cc2c(C(C)C)c(O)c(O)c(C=O)c2c1O | > 100 µM
4) Cn1c(CCCC(=O)O)nc2cc(N(CCCl)CCCl)ccc21 | > 10 µM
5) COc1ccc(-c2cc3c(C)nc(N)nc3n([C@H]3CC[C@H](OCCO)CC3)c2=O)cn1 | 1.63 µM
6) S=P(N1CC1)(N1CC1)N1CC1 | > 50 µM
7) CC(=O)[C@]1(O)Cc2c(O)c3c(c(O)c2[C@@H](O[C@H]2C[C@H](N)[C@H](O)[C@H](C)O2)C1)C(=O)c1ccccc1C3=O | 0.0541 µM
8) Clc1ccc(Nc2nnc(Cc3ccncc3)c3ccccc23)cc1 | > 10 µM

###

Reported drug sensitivity score values for a set of compounds
Test system: ST8814
experimentalProtocol: drug sensitivity score (DSS, CellTox-Green cytotoxicity, 72 h) (DSS (dimensionless)); higher = more cytotoxic; extreme values may be limits of the assay
observationType: drug sensitivity score

1) Clc1ccc(Nc2nnc(Cc3ccncc3)c3ccccc23)cc1 [Vatalanib] (max concentration tested 10000 nM) | 0
2) C/C(=C\c1csc(C)n1)[C@@H]1C[C@@H]2O[C@]2(C)CCC[C@H](C)[C@H](O)[C@@H](C)C(=O)C(C)(C)[C@@H](O)CC(=O)N1 [Ixabepilone] (max concentration tested 1000 nM) | 4.33
3) C[C@]1(c2nc3c(C(N)=O)cccc3[nH]2)CCCN1 [Veliparib] (max concentration tested 10000 nM) | 0
4) C[C@H]1C[C@@H]2[C@H]([C@@H](O)C[C@@]3(C)[C@H]2CC[C@]3(O)C(=O)CO)[C@@]2(C)C=CC(=O)C=C12 [Methylprednisolone] (max concentration tested 10000 nM) | 0
5) NS(=O)(=O)OC[C@@H]1C[C@@H](n2ccc3c(N[C@H]4CCc5ccccc54)ncnc32)C[C@@H]1O [Pevonedistat] (max concentration tested 10000 nM) | 19.3
6) Cn1c(=O)n(-c2ccc(C(C)(C)C#N)cc2)c2c3cc(-c4cnc5ccccc5c4)ccc3ncc21 [Dactolisib] (max concentration tested 1000 nM) | 0
7) FC(F)c1nc2ccccc2n1-c1nc(N2CCOCC2)nc(N2CCOCC2)n1 [ZSTK474] (max concentration tested 10000 nM) | 0
8) C[C@]12CC[C@H](O)CC1=CC[C@@H]1[C@@H]2CC[C@]2(C)C(c3cccnc3)=CC[C@@H]12 [Abiraterone] (max concentration tested 5000 nM) | 0
9) CC(C)(C)NC(=O)[C@H]1CC[C@H]2[C@@H]3CC[C@H]4NC(=O)C=C[C@]4(C)[C@H]3CC[C@]12C [Finasteride] (max concentration tested 10000 nM) | 0
10) CC1(C)NC(=O)N(c2ccc([N+](=O)[O-])c(C(F)(F)F)c2)C1=O [Nilutamide] (max concentration tested 10000 nM) | 0
11) CC(C)(C)c1nc(-c2cccc(NS(=O)(=O)c3c(F)cccc3F)c2F)c(-c2ccnc(N)n2)s1 [Dabrafenib] (max concentration tested 2500 nM) | 0

###

Tested on: HS-Sch-2
experimentalProtocol: drug sensitivity score (DSS, CellTiter-Glo viability, 72 h) (DSS (dimensionless)); higher = more sensitive; extreme values may be limits of the assay
# binarize drug sensitivity score: threshold 3 inclusive, high side yes (1), low side no (0)

1. CCc1cncnc1N1CCN(Cc2nc3ccc(C(F)(F)F)cc3[nH]2)CC1 (max concentration tested 10000 nM) | no (0)
2. COc1ccc(-c2nc(N3CCOCC3)c3sc(CN(C)c4ncc(C(=O)NO)cn4)cc3n2)cn1 [CUDC-907] (max concentration tested 10000 nM) | yes (1)
3. CN1CC[C@@H](NC(=O)Nc2ccc(C#N)cc2)C[C@@H]1c1nc2ccccc2[nH]1 [Glasdegib] (max concentration tested 1000 nM) | no (0)
4. O=C(NC1CCNCC1)c1n[nH]cc1NC(=O)c1c(Cl)cccc1Cl [AT7519] (max concentration tested 10000 nM) | yes (1)
5. CC(C)(C)Cn1c(N)nc2ccc(-c3[nH]c(C(C)(C)C)nc3-c3ccc(F)cc3)nc21 [Ralimetinib] (max concentration tested 10000 nM) | no (0)
6. CC[C@@]1(O)C(=O)OCc2c1cc1n(c2=O)Cc2cc3ccccc3nc2-1 [Camptothecin] (max concentration tested 5000 nM) | yes (1)
7. NC(=O)c1cccc2cn(-c3ccc(C4CCCNC4)cc3)nc12 (stereo not drawn) [Niraparib] (max concentration tested 10000 nM) | no (0)
8. CCc1nc(-c2cccc(C)c2)c(-c2ccnc(NC(=O)c3ccccc3)c2)s1 [TAK-715] (max concentration tested 10000 nM) | no (0)
9. CCCCCOC(=O)Nc1nc(=O)n([C@@H]2O[C@H](C)[C@@H](O)[C@H]2O)cc1F [Capecitabine] (max concentration tested 10000 nM) | no (0)
10. O=P1(NCCCl)OCCCN1CCCl (stereo not drawn) [Ifosfamide] (max concentration tested 10000 nM) | no (0)
11. Nc1cc(C(F)(F)F)c(-c2cc(N3CCOCC3)nc(N3CCOCC3)n2)cn1 [Buparlisib] (max concentration tested 10000 nM) | yes (1)
12. Cc1ccc(-n2nc(C(C)(C)C)cc2NC(=O)Nc2ccc(OCCN3CCOCC3)c3ccccc23)cc1 [Doramapimod] (max concentration tested 10000 nM) | yes (1)
13. Nc1nc(NC2CC2)cc(-c2cccc(Cl)c2Cl)n1 [TH588] (max concentration tested 25000 nM) | yes (1)
